B1: LINE1-full (parent)
chain: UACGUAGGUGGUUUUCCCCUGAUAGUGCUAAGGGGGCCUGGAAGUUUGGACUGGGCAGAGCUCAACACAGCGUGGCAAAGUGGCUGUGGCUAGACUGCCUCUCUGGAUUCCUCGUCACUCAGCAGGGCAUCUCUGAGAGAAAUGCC

- Variants of: B1
- assay protocol: self-cleavage, relative activity (ratio to wild type); higher = more cleavage; in vitro, sequencing; the parent is a self-cleaving ribozyme
Each record's class is read off its self-cleavage using these ranges: class 0: < 0.3; class 1: ≥ 0.3 and < 1; class 2: ≥ 1

> print(dat)
    variant.description  assigned.label
 1          U108C U143A         class 0
 2           U12C U104C         class 2
 3            U52C C71A         class 0
 4           C18A U104A         class 1
 5            U15C A65C         class 0
 6            A64C A65G         class 0
 7           C66U A142C         class 0
 8            U12A U20C         class 2
 9          G122C A140C         class 2
10           U13C A138G         class 2
11             U9C G44A         class 1
12           C90A A117C         class 0
13            A69G G83A         class 0
14            U20C A42U         class 2
15             A6U U87A         class 0
16           G40A U130A         class 2
17          U102A A124G         class 2
18           A50U A124U         class 2
19            G41U U45A         class 2
20             U9A U12A         class 1
21           U39A U112C         class 2
22            A24U A92U         class 1
